For each record, write down the corresponding pIC50.
TESTED_SYSTEM: PI3Kα (Homo sapiens, UniProt P42336)
Sequence (P42336 whole entry, one chain of several): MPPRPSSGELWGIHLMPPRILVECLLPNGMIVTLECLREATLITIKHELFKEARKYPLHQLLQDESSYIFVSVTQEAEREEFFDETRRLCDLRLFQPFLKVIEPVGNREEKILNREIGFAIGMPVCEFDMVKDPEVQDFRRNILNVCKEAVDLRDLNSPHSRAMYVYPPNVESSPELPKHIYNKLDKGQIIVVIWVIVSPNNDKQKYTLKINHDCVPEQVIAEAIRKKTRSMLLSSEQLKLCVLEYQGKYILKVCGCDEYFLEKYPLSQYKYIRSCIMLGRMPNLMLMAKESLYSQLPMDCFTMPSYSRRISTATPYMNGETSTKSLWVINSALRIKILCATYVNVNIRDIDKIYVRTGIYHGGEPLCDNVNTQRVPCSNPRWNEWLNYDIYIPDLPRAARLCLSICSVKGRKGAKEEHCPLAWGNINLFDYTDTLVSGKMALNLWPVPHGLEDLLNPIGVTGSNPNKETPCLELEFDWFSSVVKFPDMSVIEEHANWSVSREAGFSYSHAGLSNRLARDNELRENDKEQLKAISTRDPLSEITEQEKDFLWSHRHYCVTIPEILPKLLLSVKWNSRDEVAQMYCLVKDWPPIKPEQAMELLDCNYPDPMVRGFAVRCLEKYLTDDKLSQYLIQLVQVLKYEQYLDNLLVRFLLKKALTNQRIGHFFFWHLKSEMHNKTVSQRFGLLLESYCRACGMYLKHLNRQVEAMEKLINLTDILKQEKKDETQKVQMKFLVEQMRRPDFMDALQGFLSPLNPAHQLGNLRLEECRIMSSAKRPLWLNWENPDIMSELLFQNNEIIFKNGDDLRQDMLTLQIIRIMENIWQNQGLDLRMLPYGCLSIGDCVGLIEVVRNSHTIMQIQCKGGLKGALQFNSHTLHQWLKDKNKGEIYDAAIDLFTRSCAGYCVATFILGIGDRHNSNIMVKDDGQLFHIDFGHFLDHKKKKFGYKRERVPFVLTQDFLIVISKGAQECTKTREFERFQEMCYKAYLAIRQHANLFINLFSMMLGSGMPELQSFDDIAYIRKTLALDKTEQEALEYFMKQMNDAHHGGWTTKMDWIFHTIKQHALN
EXPERIMENTAL_PROTOCOL: PI3K Biochemical Assay (ATP consumed, luciferase-luciferin chemiluminescence)
TEST_PARAMETERS: 1 μM ATP, 10 μM PIP2; last bin: >= 2,000 nM or not active under the conditions the assay was run; read-out: IC50 for PI3Kα in this assay
pIC50: −log10 of the molar value.

Observed pIC50, PI3Kα (Homo sapiens, UniProt P42336), `Cc1nc2cc(-c3ccc4c(c3)CN(c3nc([C@@H]5CCCN5C(=O)OCc5ccccc5)nc5c3CC(C)(C)CC5)CCO4)cnc2[nH]1` : 5.70 to 6.00

Observed pIC50, PI3Kα (Homo sapiens, UniProt P42336), `Cc1nc2ccc(-c3ccc4c(c3)CN(c3cc(-c5ccccc5)nc(-c5ccccc5)n3)CCO4)cc2[nH]1` : ≤ 5.70

Observed pIC50, PI3Kα (Homo sapiens, UniProt P42336), `CCN(CC)c1nc(N2CCOc3ccc(-c4ccc5nc(C)[nH]c5c4)cc3C2)c2ccccc2n1` : ≤ 5.70

Observed pIC50, PI3Kα (Homo sapiens, UniProt P42336), `Cn1cnc2cc(-c3ccc4c(c3)CN(c3ccnc5ccccc35)CCO4)ccc21` : 5.70 to 6.00

* * *

For each record, write down the corresponding IC50.
TESTED_SYSTEM: PI3Kα E545K (Homo sapiens, UniProt P42336, E545K)
Sequence (P42336 whole entry E545K): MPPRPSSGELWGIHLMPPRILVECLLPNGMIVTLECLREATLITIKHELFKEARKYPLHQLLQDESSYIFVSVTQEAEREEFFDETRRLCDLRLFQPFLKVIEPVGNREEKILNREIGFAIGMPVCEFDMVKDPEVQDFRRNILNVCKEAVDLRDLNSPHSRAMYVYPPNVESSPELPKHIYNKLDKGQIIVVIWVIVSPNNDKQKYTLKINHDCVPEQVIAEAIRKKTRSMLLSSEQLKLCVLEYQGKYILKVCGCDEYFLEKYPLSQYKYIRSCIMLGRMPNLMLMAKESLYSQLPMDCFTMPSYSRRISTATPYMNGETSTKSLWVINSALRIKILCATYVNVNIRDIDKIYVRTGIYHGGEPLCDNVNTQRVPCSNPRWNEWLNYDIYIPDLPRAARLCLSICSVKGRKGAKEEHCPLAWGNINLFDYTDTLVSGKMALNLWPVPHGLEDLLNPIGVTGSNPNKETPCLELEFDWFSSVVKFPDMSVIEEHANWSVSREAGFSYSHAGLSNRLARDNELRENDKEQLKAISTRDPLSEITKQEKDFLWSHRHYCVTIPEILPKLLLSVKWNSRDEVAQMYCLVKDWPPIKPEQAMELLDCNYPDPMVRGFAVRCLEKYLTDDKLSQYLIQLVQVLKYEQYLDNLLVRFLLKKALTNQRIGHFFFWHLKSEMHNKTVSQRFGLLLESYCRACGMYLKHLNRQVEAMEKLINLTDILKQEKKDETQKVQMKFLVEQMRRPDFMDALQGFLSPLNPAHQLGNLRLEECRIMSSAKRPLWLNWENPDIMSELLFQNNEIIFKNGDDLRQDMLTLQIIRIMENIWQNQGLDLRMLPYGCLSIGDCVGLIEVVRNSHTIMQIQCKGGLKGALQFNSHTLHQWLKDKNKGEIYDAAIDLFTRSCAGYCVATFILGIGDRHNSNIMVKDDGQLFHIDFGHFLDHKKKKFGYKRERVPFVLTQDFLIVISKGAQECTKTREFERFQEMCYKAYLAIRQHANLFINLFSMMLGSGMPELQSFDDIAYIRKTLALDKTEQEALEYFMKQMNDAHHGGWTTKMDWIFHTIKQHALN
Sequence (P27986 whole entry partner): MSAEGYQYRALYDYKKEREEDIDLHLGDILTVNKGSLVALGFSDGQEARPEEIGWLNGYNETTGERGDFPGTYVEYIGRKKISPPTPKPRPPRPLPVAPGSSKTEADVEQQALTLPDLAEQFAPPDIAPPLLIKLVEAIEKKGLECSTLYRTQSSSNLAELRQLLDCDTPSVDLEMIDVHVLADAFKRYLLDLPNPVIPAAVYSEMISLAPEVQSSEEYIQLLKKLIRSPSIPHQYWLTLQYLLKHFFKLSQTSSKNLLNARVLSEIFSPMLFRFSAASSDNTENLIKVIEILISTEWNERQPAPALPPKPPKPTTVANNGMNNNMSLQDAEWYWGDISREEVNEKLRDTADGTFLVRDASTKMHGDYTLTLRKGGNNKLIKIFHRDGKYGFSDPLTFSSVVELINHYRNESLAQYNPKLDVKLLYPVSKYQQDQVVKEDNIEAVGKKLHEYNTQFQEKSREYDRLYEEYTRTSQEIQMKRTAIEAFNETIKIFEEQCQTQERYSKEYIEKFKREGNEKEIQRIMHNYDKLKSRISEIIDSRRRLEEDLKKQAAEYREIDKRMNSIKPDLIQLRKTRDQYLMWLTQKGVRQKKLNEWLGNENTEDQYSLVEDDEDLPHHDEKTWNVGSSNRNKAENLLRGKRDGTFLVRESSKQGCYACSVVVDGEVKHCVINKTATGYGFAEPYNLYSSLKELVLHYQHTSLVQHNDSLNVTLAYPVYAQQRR
EXPERIMENTAL_PROTOCOL: PI3K Biochemical Assay
TEST_PARAMETERS: PIP2 used as substrate
Please reply with the bare figure in nM and do not write the unit itself.

GET /value?item= `CCNc1nc2ccc(-c3ccc4c(c3)CN(c3ccnc5cc(F)ccc35)CCO4)cc2[nH]1` &field=IC50 returns 6

GET /value?item= `Cc1nc2ncc(-c3ccc4c(c3)CN(c3nc(CN(C)C)nc5c3CC(C)(C)CC5)CCO4)cc2[nH]1` &field=IC50 returns 5

GET /value?item= `COc1ccc2c(N3CCOc4ccc(-c5cnc6nc(C)[nH]c6c5)cc4C3)nc(CN(C)C)nc2c1` &field=IC50 returns 9

GET /value?item= `Cc1nc2cc(-c3ccc4c(c3)CN(c3nc(CN(C)C)nc(C)c3C(C)C)CCO4)cnc2[nH]1` &field=IC50 returns 6

GET /value?item= `CCNc1nc2ccc(-c3ccc4c(c3)CN(c3ncnc(NCC)c3C)CCO4)cc2[nH]1` &field=IC50 returns 5

* * *

Test system: pAKT (T308) in T-47D cells (PI3Kα H1047R)
EXPERIMENTAL_PROTOCOL: pAKT (T308) ELISA Assay
Type: cell-based
TEST_PARAMETERS: Homo sapiens, T47D; IGF1 stimulation; read-out: pAKT (T308) IC50 T-47D PI3Kα H1047R IGF1
For each record, write down the corresponding IC50.
Please reply with the bare figure in µM and do not write the unit itself.

GET /value?item= `Cc1nc2ncc(-c3ccc4c(c3)CN(c3nc(CN(C)C)nc5c3CC(C)(C)CC5)CCO4)cc2[nH]1` &field=IC50 returns 0.073

GET /value?item= `Cc1nc2cc(-c3ccc4c(c3)CN(c3nc(CN(C)C)nc(C)c3C(C)C)CCO4)cnc2[nH]1` &field=IC50 returns 0.102

GET /value?item= `CCNc1nc2ccc(-c3ccc4c(c3)CN(c3ncnc(NCC)c3C)CCO4)cc2[nH]1` &field=IC50 returns 0.207

GET /value?item= `COc1ccc2c(N3CCOc4ccc(-c5cnc6nc(C)[nH]c6c5)cc4C3)nc(CN(C)C)nc2c1` &field=IC50 returns 0.213

GET /value?item= `CCNc1nc2ccc(-c3ccc4c(c3)CN(c3ccnc5cc(F)ccc35)CCO4)cc2[nH]1` &field=IC50 returns 0.258

* * *

Assay read-out pIC50; system under study: PI3Kγ (Homo sapiens).
Sequence (P48736 whole entry): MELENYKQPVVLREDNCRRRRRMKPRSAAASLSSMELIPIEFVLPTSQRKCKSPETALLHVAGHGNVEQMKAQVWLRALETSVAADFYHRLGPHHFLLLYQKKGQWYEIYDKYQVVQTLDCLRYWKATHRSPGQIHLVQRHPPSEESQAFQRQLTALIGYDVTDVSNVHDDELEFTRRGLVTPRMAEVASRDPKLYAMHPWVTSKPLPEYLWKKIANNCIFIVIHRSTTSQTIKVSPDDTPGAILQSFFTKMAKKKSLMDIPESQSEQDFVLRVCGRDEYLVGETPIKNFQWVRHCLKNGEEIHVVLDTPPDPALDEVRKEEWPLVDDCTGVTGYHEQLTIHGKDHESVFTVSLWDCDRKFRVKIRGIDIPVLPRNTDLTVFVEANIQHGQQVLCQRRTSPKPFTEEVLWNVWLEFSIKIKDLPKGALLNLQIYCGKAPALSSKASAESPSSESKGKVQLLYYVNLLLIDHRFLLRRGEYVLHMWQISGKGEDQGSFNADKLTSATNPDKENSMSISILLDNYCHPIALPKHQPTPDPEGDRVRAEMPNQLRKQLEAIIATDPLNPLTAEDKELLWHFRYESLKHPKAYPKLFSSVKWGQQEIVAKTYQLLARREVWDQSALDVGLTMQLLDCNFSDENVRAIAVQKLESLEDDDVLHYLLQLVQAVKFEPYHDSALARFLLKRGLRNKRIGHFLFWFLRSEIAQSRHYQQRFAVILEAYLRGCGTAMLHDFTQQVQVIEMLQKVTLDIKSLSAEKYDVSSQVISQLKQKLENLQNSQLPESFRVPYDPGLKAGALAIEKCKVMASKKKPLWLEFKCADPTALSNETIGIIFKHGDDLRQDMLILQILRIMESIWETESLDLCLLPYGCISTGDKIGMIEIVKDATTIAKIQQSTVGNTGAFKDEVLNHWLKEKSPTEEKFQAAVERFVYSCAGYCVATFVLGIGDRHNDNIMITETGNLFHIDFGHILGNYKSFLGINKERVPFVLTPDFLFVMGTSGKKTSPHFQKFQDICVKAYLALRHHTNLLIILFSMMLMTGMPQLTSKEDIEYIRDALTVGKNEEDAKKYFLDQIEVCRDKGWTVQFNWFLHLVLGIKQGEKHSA
Just so you know, pIC50 here is -log10 of the concentration in molar units; reply with that number alone.

Observed pIC50, PI3Kγ (Homo sapiens), `CCNc1nc2ccc(-c3ccc4c(c3)CN(c3ccnc5cc(F)ccc35)CCO4)cc2[nH]1` : 6.80

Observed pIC50, PI3Kγ (Homo sapiens), `Cc1nc2cc(-c3ccc4c(c3)CN(c3nc(CN(C)C)nc(C)c3C(C)C)CCO4)cnc2[nH]1` : 5.73

Observed pIC50, PI3Kγ (Homo sapiens), `COc1ccc2c(N3CCOc4ccc(-c5cnc6nc(C)[nH]c6c5)cc4C3)nc(CN(C)C)nc2c1` : 5.74

* * *

For each record, write down the corresponding IC50.
TESTED_SYSTEM: PI3Kα H1047R (Homo sapiens, UniProt P42336, H1047R)
Sequence (P42336 whole entry H1047R, one chain of several): as the sequence (P42336 whole entry, one chain of several) above, with H1047R counted along it
EXPERIMENTAL_PROTOCOL: PI3K Biochemical Assay
TEST_PARAMETERS: PIP2 used as substrate
Please reply with the bare figure in nM and do not write the unit itself.

Observed IC50, PI3Kα H1047R (Homo sapiens, UniProt P42336, H1047R), `CCNc1nc2ccc(-c3ccc4c(c3)CN(c3ccnc5cc(F)ccc35)CCO4)cc2[nH]1` : 7

Observed IC50, PI3Kα H1047R (Homo sapiens, UniProt P42336, H1047R), `Cc1nc2cc(-c3ccc4c(c3)CN(c3nc(CN(C)C)nc(C)c3C(C)C)CCO4)cnc2[nH]1` : 5

Observed IC50, PI3Kα H1047R (Homo sapiens, UniProt P42336, H1047R), `Cc1nc2ncc(-c3ccc4c(c3)CN(c3nc(CN(C)C)nc5c3CC(C)(C)CC5)CCO4)cc2[nH]1` : 3

Observed IC50, PI3Kα H1047R (Homo sapiens, UniProt P42336, H1047R), `COc1ccc2c(N3CCOc4ccc(-c5cnc6nc(C)[nH]c6c5)cc4C3)nc(CN(C)C)nc2c1` : 5

Observed IC50, PI3Kα H1047R (Homo sapiens, UniProt P42336, H1047R), `CCNc1nc2ccc(-c3ccc4c(c3)CN(c3ncnc(NCC)c3C)CCO4)cc2[nH]1` : 6

* * *

System: pAKT (T308) in PC-3 cells (PTEN-null)
EXPERIMENTAL_PROTOCOL: pAKT (T308) ELISA Assay
Assay type: cell-based
TEST_PARAMETERS: Homo sapiens, IGF1 stimulation, read-out: pAKT (T308) IC50 PC# PTEN-null IGF1
For each record, write down the corresponding IC50.
Please reply with the bare figure in nM and do not write the unit itself.

GET /value?item= `Cc1nc2cc(-c3ccc4c(c3)CN(c3nc(CN(C)C)nc(C)c3C(C)C)CCO4)cnc2[nH]1` &field=IC50 returns 231

GET /value?item= `CCNc1nc2ccc(-c3ccc4c(c3)CN(c3ncnc(NCC)c3C)CCO4)cc2[nH]1` &field=IC50 returns 2120

GET /value?item= `CCNc1nc2ccc(-c3ccc4c(c3)CN(c3ccnc5cc(F)ccc35)CCO4)cc2[nH]1` &field=IC50 returns 2870

GET /value?item= `COc1ccc2c(N3CCOc4ccc(-c5cnc6nc(C)[nH]c6c5)cc4C3)nc(CN(C)C)nc2c1` &field=IC50 returns 1680

* * *

TESTED_SYSTEM: mTOR/GbL/Raptor (mTORC1) (Homo sapiens)
EXPERIMENTAL_PROTOCOL: mTOR/GbL/Raptor (mTORC1) ELISA Assay
Assay type: biochemical
TEST_PARAMETERS: 4E-BP1 phosphorylation, 0.2 nM mTORC1, 10 μM ATP; last bin: >= 2,000 nM or not active under the conditions the assay was run; read-out: IC50 in this assay (mTORC1)
pIC50: −log10 of the molar value.
MEASUREMENT_KIND: pIC50

GET /value?item= `Cc1nc2ccc(-c3ccc4c(c3)CN(c3nc(C(C)(C)O)nc5c3CC(C)(C)CC5)CCO4)cc2[nH]1` &field=pIC50 returns 6.60 to 7.30

GET /value?item= `Cc1nc2ccc(-c3ccc4c(c3)CN(c3ncnc5ccc(Cl)cc35)CCO4)cc2[nH]1` &field=pIC50 returns ≥ 8.00

GET /value?item= `Cn1ccc2cc(-c3ccc4c(c3)CN(c3ccnc5ccccc35)CCO4)ccc21` &field=pIC50 returns 5.70 to 6.00

GET /value?item= `Cc1nc2cc(-c3ccc4c(c3)CN(c3nc(N)nc(C)c3Cc3ccc(F)cc3)CCO4)ccc2[nH]1` &field=pIC50 returns ≥ 8.00

GET /value?item= `Cn1cnc2cc(-c3ccc4c(c3)CN(c3ccnc5ccccc35)CCO4)ccc21` &field=pIC50 returns 6.00 to 6.60

GET /value?item= `CC1(C)CCc2ncnc(N3CCOc4ccc(-c5cnc(NCc6ccccc6)c(NS(C)(=O)=O)c5)cc4C3)c2C1` &field=pIC50 returns ≤ 5.70

GET /value?item= `COC(=O)Nc1nc2ccc(-c3ccc4c(c3)CN(c3ncnc5c3CC(C)(C)CC5)CCO4)cc2[nH]1` &field=pIC50 returns 6.60 to 7.30

GET /value?item= `Cc1nc2cc(-c3ccc4c(c3)CN(c3nc(CN(C)C)nc(C)c3C)CCO4)cnc2[nH]1` &field=pIC50 returns 5.70 to 6.00

GET /value?item= `Cc1nc2ccc(-c3ccc4c(c3)CN(c3ncnc5ccc(Br)cc35)CCO4)cc2[nH]1` &field=pIC50 returns ≥ 8.00

GET /value?item= CC1(C)CCc2ncnc(N3CCOc4ccc(-c5cnc(N)c(S(=O)(=O)N6CCC(N)C6)c5)cc4C3)c2C1 (stereo not drawn) &field=pIC50 returns 7.30 to 8.00

GET /value?item= Cc1nc2cc(-c3ccc4c(c3)CN(c3nc(C5CCCN5)nc5c3CC(C)(C)CC5)CCO4)cnc2[nH]1 (stereo not drawn) &field=pIC50 returns ≥ 8.00

GET /value?item= `Cc1nc2ccc(-c3ccc4c(c3)CN(c3ccncn3)CCO4)cc2[nH]1` &field=pIC50 returns ≤ 5.70

GET /value?item= `CCNc1nc2ccc(-c3ccc4c(c3)CN(c3cc(C)nc5cc(F)ccc35)CCO4)cc2[nH]1` &field=pIC50 returns 6.60 to 7.30

GET /value?item= `CC1(C)CCc2ncnc(N3CCOc4ccc(-c5cnc6c(c5)OCCN6)cc4C3)c2C1` &field=pIC50 returns 6.60 to 7.30

GET /value?item= `CC(C)(O)CCS(=O)(=O)c1cc(-c2ccc3c(c2)CN(c2ncnc4c2CC(C)(C)CC4)CCO3)cnc1N` &field=pIC50 returns 6.60 to 7.30

GET /value?item= `Cc1nc2ccc(-c3ccc4c(c3)CN(c3ncnc5c(Br)cccc35)CCO4)cc2[nH]1` &field=pIC50 returns 6.60 to 7.30

GET /value?item= `CCNc1nc2ccc(-c3ccc4c(c3)CN(c3nc(C)nc5cc(O)ccc35)CCO4)cc2[nH]1` &field=pIC50 returns 6.60 to 7.30

GET /value?item= `CC1(C)CCc2ncnc(N3CCOc4ccc(-c5ccc6nc[nH]c6c5)cc4C3)c2C1` &field=pIC50 returns ≥ 8.00
